Taken from patent US7795221B2.

- target-or-test-system: T1, human natriuretic peptide receptor A (human, UniProt P16066 33-1061)
- T1 construct: whole, on cells; The cGMP assay used whole HEK-hNPRA cells; also called NPRA; hNPRA
- T1 sequence (looked up): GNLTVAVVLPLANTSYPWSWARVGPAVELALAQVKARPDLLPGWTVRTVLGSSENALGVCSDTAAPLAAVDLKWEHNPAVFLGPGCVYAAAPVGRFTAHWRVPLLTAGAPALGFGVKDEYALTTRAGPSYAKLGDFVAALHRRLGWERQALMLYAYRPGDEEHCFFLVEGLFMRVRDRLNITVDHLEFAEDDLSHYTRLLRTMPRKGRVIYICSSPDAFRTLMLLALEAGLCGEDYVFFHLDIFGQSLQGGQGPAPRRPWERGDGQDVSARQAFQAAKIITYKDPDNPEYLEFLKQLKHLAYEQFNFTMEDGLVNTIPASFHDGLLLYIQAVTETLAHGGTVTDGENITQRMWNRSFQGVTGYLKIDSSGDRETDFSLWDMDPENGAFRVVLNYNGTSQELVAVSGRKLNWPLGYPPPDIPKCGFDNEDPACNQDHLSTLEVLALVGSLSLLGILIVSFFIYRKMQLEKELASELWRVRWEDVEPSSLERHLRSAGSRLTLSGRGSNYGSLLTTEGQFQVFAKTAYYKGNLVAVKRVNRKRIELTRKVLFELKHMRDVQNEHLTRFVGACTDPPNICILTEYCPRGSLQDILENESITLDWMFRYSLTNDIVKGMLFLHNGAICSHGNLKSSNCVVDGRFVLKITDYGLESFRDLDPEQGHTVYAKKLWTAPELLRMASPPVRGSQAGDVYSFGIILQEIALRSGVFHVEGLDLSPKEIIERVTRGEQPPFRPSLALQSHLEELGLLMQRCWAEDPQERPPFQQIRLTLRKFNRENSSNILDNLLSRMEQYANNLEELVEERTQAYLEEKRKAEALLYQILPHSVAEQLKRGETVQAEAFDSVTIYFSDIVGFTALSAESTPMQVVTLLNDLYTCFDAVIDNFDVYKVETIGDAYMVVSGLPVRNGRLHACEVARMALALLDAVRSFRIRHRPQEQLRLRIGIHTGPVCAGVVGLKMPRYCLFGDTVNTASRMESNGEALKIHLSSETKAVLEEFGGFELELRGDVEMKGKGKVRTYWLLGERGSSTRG
- method-description: competitive inhibition of [125I]-ANP binding to HEK-hNPRA membrane homogenates
Square brackets hold non-standard residues; d marks the D form. Ends that are not written are not given here. keto‑piperazine surrogate = not defined here; Nle = CCCC[C@H](N)C(=O)O
measured-attribute: pKi
Remember the convention: pKi equals -log10 of concentration in molar.

Query string: For the binder [keto‑piperazine surrogate]AHFGGR[Nle]DRISAY[keto‑piperazine surrogate] (reading uncertain; also: further groups not given here, Linear synthetic construct) [Construct 1-49] , give its reported pKi.
Result string: 9.70

Query string: For the binder [keto‑piperazine surrogate]AHFGGR[Nle]DRISAY[keto‑piperazine surrogate] (reading uncertain; also: further groups not given here, Linear synthetic construct) [Construct 1-30] , give its reported pKi.
Result string: 8.06

Query string: For the binder [keto‑piperazine surrogate]AHFGGR[Nle]DRISAYR (reading uncertain; also: further groups not given here, Linear synthetic construct) [Construct 1-9] , give its reported pKi.
Result string: 7.84

Query string: For the binder [Nle]AHFGGR[Nle]DRISAY[keto‑piperazine surrogate] (reading uncertain; also: further groups not given here, Linear synthetic construct modelled on mini-ANP) [Construct 1-16] , give its reported pKi.
Result string: 7.05
